tested on: human CD19+ B-cells; test: Cytokine production in IgM-stimulated isolated human CD19+ B-cells; format: cell-based; conditions: Homo sapiens, B-cell, IL-6; IgM 1.25 μg/mL
Where a name gives a salt, the structure may show the parent alone.
Experimental Endpoint: EC50 (nM)
Provide only the numeric value, understood in nM.

Tell us which EC50 value is on record for N[C@H]1CS(=O)(=O)c2cc(F)c(C(=O)NC3CC3(F)F)cc2N(Cc2ccc(Cl)cc2)C1=O (stereo partly shown) [Example 1, hydrochloride]
2450

---

Measured pEC50 of individual entries
test system: aCD3/aCD28-stimulated human PBMCs; experiment: Cytokine production in aCD3/aCD28 stimulated human PBMCs; format: cell-based; details: PBMC, enhancement of IL-2 production, 18 h, read-out: Activity Class IL-2
pEC50: −log10 of the molar value. Counter-ions that a name gives are not always drawn.

Below are worked cases with known answers.
Compound	pEC50
COc1ccc(CNC(=O)c2cc3c(cc2F)SC[C@H](N)C(=O)N3Cc2ccc(Cl)cc2)cc1.Cl [Example 43, hydrochloride]	5.30 to 5.80
Cc1nc(-c2ccc(CN3C(=O)[C@@H](N)CS(=O)(=O)c4ccc(C(=O)NCCCC(F)(F)F)cc43)cc2)no1 [Example 119, hydrochloride]	< 5.30
CCCCCCCNC(=O)c1cc2c(cc1F)S(=O)(=O)C[C@H](N)C(=O)N2Cc1ccc(Cl)cc1.Cl [Example 104, hydrochloride]	> 5.80
N[C@H]1CS(=O)(=O)c2cc(F)c(C(=O)NCCC3CCOCC3)cc2N(Cc2ccc(Cl)cc2)C1=O [Example 135, hydrochloride]	5.30 to 5.80
Cl.N[C@H]1CSc2ccc(C(=O)NCc3ccccc3)cc2N(Cc2ccc(OC(F)(F)F)cc2)C1=O [Example 6, hydrochloride]	5.30 to 5.80
Cl.Cl.N[C@H]1CSc2ccc(C(=O)Nc3cccnc3)cc2N(Cc2ccc(OC(F)(F)F)cc2)C1=O [Example 25, dihydrochloride]	5.30 to 5.80

Tell us which pEC50 value is on record for N[C@H]1CS(=O)(=O)c2cc(F)c(C(=O)NCC3CCOCC3)cc2N(Cc2ccc(F)cc2)C1=O [Example 139, hydrochloride]
5.30 to 5.80

Tell us which pEC50 value is on record for CC(C)CONC(=O)c1cc2c(cc1F)S(=O)(=O)C[C@H](N)C(=O)N2Cc1ccc(Cl)cc1.Cl [Example 75, hydrochloride]
< 5.30

Tell us which pEC50 value is on record for N[C@H]1CS(=O)(=O)c2ccc(C(=O)NCC3CCOC3)cc2N(Cc2ccc(Cl)cc2)C1=O (stereo partly drawn)
< 5.30

---

system: aCD3/aCD28-stimulated human PBMCs; test: Cytokine production in aCD3/aCD28 stimulated human PBMCs; type: cell-based; conditions: PBMC, enhancement of IL-2 production, 18 h, read-out: Activity Class IL-2
pEC50: −log10 of the molar value.
Measured pEC50 of individual entries

Compound	pEC50
CCCCNC(=O)c1ccc2c(c1)N(Cc1ccc(Cl)cc1)C(=O)[C@@H](N)C[S+]2[O-].Cl (stereo partly drawn) [Example 66, hydrochloride]	5.30 to 5.80

Now look at this entry.
Tell us which pEC50 value is on record for CC(C)NC(=O)c1ccc2c(c1)N(Cc1ccc(Cl)c(F)c1)C(=O)[C@@H](N)CS2(=O)=O.Cl [Example 89, hydrochloride]
< 5.30

---

test system: aCD3/aCD28-stimulated human PBMCs; experiment: Cytokine production in aCD3/aCD28 stimulated human PBMCs; format: cell-based; conditions: PBMC, enhancement of IL-2 production, 18 h, read-out: Activity Class IL-2
pEC50: −log10 of the molar value.
Measured pEC50 of individual entries

Below are worked cases with known answers.
Compound	pEC50
CCCCCCCCCCCCCCCCNC(=O)c1cc2c(cc1F)S(=O)(=O)C[C@H](N)C(=O)N2Cc1ccc(Cl)cc1.Cl [Example 109, hydrochloride]	> 5.80
COc1cccc(CN2C(=O)[C@@H](N)CS(=O)(=O)c3ccc(C(=O)NC4CC(F)(F)C4)cc32)c1	< 5.30

Now look at this entry.
Tell us which pEC50 value is on record for Cl.N[C@H]1CSc2cc(F)c(C(=O)NCC3CCOCC3)cc2N(Cc2ccc(Cl)cc2F)C1=O [Example 55, hydrochloride]
5.30 to 5.80

---

system: CD4 T cells; assay: CD69 expression on aCD3/aCD28 stimulated isolated human CD4 T cells (flow cytometry); type: cell-based; settings: 24 h after TCR stimulation, read-out: Activity Class CD69 (CD4)
Where a name gives a salt, the structure may show the parent alone.
Experimental Endpoint: EC50

Compound	EC50
N[C@H]1CS(=O)(=O)c2cc(F)c(C(=O)N[C@H]3CCC(F)(F)C3)cc2N(Cc2ccc(Cl)cc2)C1=O	1580 to 5010 nM
N[C@H]1CS(=O)(=O)c2cc(F)c(C(=O)NC3CC(F)(F)C3)cc2N(Cc2ccc(F)cc2)C1=O [Example 140, hydrochloride]	1580 to 5010 nM
N[C@H]1CS(=O)(=O)c2ccc(C(=O)N[C@@H]3CC3(F)F)cc2N(Cc2ccc(C(F)(F)F)cc2)C1=O	< 1580 nM
N[C@H]1CS(=O)(=O)c2cc(Cl)c(C(=O)NCCCC(F)(F)F)cc2N(Cc2ccc(Cl)cc2)C1=O	< 1580 nM
COc1ccc(CNC(=O)c2ccc3c(c2)N(Cc2ccccc2)C(=O)[C@@H](N)CS3(=O)=O)cc1	1580 to 5010 nM

Tell us which EC50 value is on record for N[C@H]1CS(=O)(=O)c2ccc(C(=O)NCCC(F)(F)F)cc2N(Cc2ccc(Cl)cc2)C1=O
< 1580 nM

Tell us which EC50 value is on record for N[C@H]1CS(=O)(=O)c2cc(F)c(C(=O)NCCCC(F)(F)F)cc2N(Cc2ccccc2)C1=O [Example 136, hydrochloride]
< 1580 nM

Tell us which EC50 value is on record for N[C@H]1CS(=O)(=O)c2ccc(C(=O)NCC3(F)CCOCC3)cc2N(Cc2ccc(Cl)cc2)C1=O
< 1580 nM

Tell us which EC50 value is on record for N[C@H]1CSc2cc(F)c(C(=O)NCc3ccccc3)cc2N(Cc2ccc(F)cc2)C1=O [Example 132, hydrochloride]
> 5010 nM

Tell us which EC50 value is on record for Cl.N[C@H]1CS(=O)(=O)c2cc(F)c(C(=O)NCCCC(F)(F)F)cc2N(Cc2ccc(Cl)cc2)C1=O [Example 70, hydrochloride]
< 1580 nM

Tell us which EC50 value is on record for COc1ccc(CNC(=O)c2ccc3c(c2)N(Cc2ccc(Cl)cc2)C(=O)[C@@H](N)CS3(=O)=O)cc1
< 1580 nM

Tell us which EC50 value is on record for COc1ccc(CNC(=O)c2cc3c(cc2F)S(=O)(=O)C[C@H](N)C(=O)N3Cc2ccc(Cl)cc2)cc1 [Example 137, hydrochloride]
< 1580 nM

Tell us which EC50 value is on record for Cl.N[C@H]1CS(=O)(=O)c2cc(F)c(C(=O)N[C@H]3CC3(F)F)cc2N(Cc2ccc(Cl)cc2)C1=O (single isomer, unassigned) [Example 107, hydrochloride]
< 1580 nM

---

Measured EC50 of individual entries
tested on: aCD3/aCD28-stimulated human PBMCs; test: Cytokine production in aCD3/aCD28 stimulated human PBMCs; assay type: cell-based; conditions: PBMC, enhancement of IL-2 production, 18 h, read-out: Activity Class IL-2

Compound	Assay Result
CCN[C@H]1CS(=O)(=O)c2cc(F)c(C(=O)NCCCC(F)(F)F)cc2N(Cc2ccc(Cl)cc2)C1=O	> 5.01 µM

Quote EC50 with test system aCD3/aCD28-stimulated human PBMCs for Cl.N[C@H]1CS(=O)(=O)c2cc(F)c(C(=O)NCC3CCOCC3)cc2N(Cc2ccc(OC(F)(F)F)cc2)C1=O [Example 72, hydrochloride]
< 1.58 µM

Quote EC50 with test system aCD3/aCD28-stimulated human PBMCs for Cl.N[C@H]1CSc2cc(F)c(C(=O)NCC3CCOCC3)cc2N(Cc2ccc(Cl)cc2)C1=O [Example 42, hydrochloride]
> 5.01 µM

---

system: aCD3/aCD28-stimulated human PBMCs; test: Cytokine production in aCD3/aCD28 stimulated human PBMCs; type: cell-based; conditions: PBMC, enhancement of IL-2 production, 18 h, read-out: Activity Class IL-2
pEC50: −log10 of the molar value. Counter-ions that a name gives are not always drawn.
Experimental Endpoint: pEC50

Below are worked cases with known answers.
Compound	pEC50
COc1ccc(CN2C(=O)[C@@H](N)CS(=O)(=O)c3cc(F)c(C(=O)NCCCC(F)(F)F)cc32)cc1	> 5.80
N[C@H]1CS(=O)(=O)c2cc(F)c(C(=O)NCCCC(F)(F)F)cc2N(Cc2ccc(F)cc2)C1=O [Example 129, hydrochloride]	5.30 to 5.80
N[C@H]1CS(=O)(=O)c2cc(F)c(C(=O)N[C@H]3CCC(F)(F)C3)cc2N(Cc2ccc(Cl)cc2)C1=O	> 5.80
CC(C)NC(=O)c1ccc2c(c1)N(Cc1ccc(Cl)cc1)C(=O)[C@@H](N)CS2(=O)=O.Cl [Example 79, hydrochloride]	< 5.30
N[C@H]1CS(=O)(=O)c2ccc(C(=O)N[C@@H]3CC3(F)F)cc2N(Cc2ccc(C3CC3)cc2)C1=O	5.30 to 5.80

Tell us which pEC50 value is on record for N[C@H]1CS(=O)(=O)c2cc(F)c(C(=O)NC3CCOCC3)cc2N(Cc2ccc(Cl)cc2)C1=O
< 5.30

Tell us which pEC50 value is on record for Cl.N[C@H]1CS(=O)(=O)c2cc(F)c(C(=O)NC3CC(F)(F)C3)cc2N(Cc2ccc(Cl)cc2)C1=O [Example 102, hydrochloride]
> 5.80

Tell us which pEC50 value is on record for CC(C)NC(=O)c1cc2c(cc1F)S(=O)(=O)C[C@H](N)C(=O)N2Cc1ccc(Cl)cc1.Cl [Example 77, hydrochloride]
5.30 to 5.80

Tell us which pEC50 value is on record for C[C@@H]1[C@H](N)C(=O)N(Cc2ccc(Cl)cc2)c2cc(C(=O)NC3CC3(F)F)ccc2S1(=O)=O.Cl (some centres unmarked) [Example 108, hydrochloride]
< 5.30

Tell us which pEC50 value is on record for C#CCOc1ccc(CNC(=O)c2cc3c(cc2F)S(=O)(=O)C[C@H](N)C(=O)N3Cc2ccc(Cl)cc2)cc1
> 5.80

Tell us which pEC50 value is on record for CN(C)c1cc2c(cc1C(=O)NCc1ccccc1)N(Cc1ccc(Cl)cc1)C(=O)[C@@H](N)CS2(=O)=O [Example 116, hydrochloride]
< 5.30

Tell us which pEC50 value is on record for Cc1nc(-c2ccc(CN3C(=O)[C@@H](N)CSc4ccc(C(=O)NCC5CCOCC5)cc43)cc2)no1.Cl [Example 44, hydrochloride]
< 5.30

Tell us which pEC50 value is on record for C[C@@H]1[C@H](N)C(=O)N(Cc2ccc(Cl)cc2)c2cc(C(=O)NCCCC(F)(F)F)c(F)cc2S1(=O)=O [Example 118, hydrochloride]
5.30 to 5.80

Tell us which pEC50 value is on record for Cl.N[C@H]1CS(=O)(=O)c2cc(F)c(C(=O)NCCCC(F)(F)F)cc2N(Cc2ccc(OC(F)(F)F)cc2)C1=O [Example 73, hydrochloride]
> 5.80

Tell us which pEC50 value is on record for Cl.N[C@H]1CS(=O)(=O)c2cc(F)c(C(=O)NC3CC3)cc2N(Cc2ccc(Cl)cc2)C1=O [Example 85, hydrochloride]
5.30 to 5.80

Tell us which pEC50 value is on record for COc1ccc(CN2C(=O)[C@@H](N)CS(=O)(=O)c3ccc(C(=O)N[C@@H]4CC4(F)F)cc32)cc1
< 5.30

Tell us which pEC50 value is on record for C=CCCNC(=O)c1ccc2c(c1)N(Cc1ccc(Cl)cc1)C(=O)[C@@H](N)CS2.Cl [Example 64, hydrochloride]
< 5.30
